Sourced from patent US11447466B2

Molecular target: human TLR9 (Homo sapiens, UniProt Q9NR96)
Sequence (Q9NR96 26-1032): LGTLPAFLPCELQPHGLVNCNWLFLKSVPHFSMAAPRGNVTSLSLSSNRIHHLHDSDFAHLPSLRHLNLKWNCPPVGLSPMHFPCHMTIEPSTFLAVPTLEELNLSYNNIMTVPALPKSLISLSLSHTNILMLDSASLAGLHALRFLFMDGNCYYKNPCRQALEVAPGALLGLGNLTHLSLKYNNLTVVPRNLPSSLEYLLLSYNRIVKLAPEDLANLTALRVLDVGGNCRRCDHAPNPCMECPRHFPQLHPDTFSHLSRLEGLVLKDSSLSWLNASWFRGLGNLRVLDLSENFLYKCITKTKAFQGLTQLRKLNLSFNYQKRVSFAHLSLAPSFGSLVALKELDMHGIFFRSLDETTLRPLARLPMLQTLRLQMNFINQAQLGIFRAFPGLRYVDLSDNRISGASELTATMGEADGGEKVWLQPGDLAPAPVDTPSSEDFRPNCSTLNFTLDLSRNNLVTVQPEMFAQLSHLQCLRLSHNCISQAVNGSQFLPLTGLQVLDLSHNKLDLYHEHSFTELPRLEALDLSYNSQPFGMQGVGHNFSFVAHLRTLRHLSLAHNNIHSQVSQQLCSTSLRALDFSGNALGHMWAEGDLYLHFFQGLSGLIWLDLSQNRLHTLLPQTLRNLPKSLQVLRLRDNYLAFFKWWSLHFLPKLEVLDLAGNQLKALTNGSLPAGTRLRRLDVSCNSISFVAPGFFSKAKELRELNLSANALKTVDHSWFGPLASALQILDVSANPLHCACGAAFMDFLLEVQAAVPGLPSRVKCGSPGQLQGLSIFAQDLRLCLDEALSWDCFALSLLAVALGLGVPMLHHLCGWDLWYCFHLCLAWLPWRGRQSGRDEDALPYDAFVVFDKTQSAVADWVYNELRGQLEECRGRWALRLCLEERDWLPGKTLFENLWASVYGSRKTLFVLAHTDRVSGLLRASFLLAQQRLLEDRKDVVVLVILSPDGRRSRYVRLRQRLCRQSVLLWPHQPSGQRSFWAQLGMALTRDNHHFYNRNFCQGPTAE
Test: TLR9 inhibition reporter assay (HEK-Blue SEAP reporter, ODN2006 stimulation)
Conditions: HEK-Blue cells overexpressing human TLR9, SEAP reporter, ODN2006 5 nM, 22 hour incubation
assay_readout: IC50 (µM)

Worked examples follow.
Cc1c(-c2[nH]c3ccc(C4CCN(CC5CCCO5)CC4)cc3c2C(C)C)cn(C)c(=O)c1Cl (stereo not shown) : 3.01
Cc1cc(-c2[nH]c3ccc(C4CCN(C5CCC(C(C)(C)O)CC5)CC4)cc3c2C(C)C)cn(C)c1=O (stereo not shown) [Example 270] : 4.16

a: Cc1cc(-c2[nH]c3ccc(C4CCNCC4)cc3c2C(C)C)cn(CCCO)c1=O
b: CCCN1CCC(c2ccc3[nH]c(-c4cc(-c5cncnc5)c(=O)n(C)c4)c(C(C)C)c3c2F)CC1
c: Cc1cc(-c2[nH]c3ccc(C4CCN(Cc5ccc(OC(F)(F)F)cc5)CC4)cc3c2C(C)C)cn(C)c1=O
d: COCc1cc(-c2[nH]c3ccc(C4CCN(C(C)C)CC4)cc3c2C(C)C)cn(C)c1=O
Prompt: Returns the items ordered by IC50, from maximum to minimum. Order the labels as requested and list them.
Response: d, c, a, b
(d: 13.6 µM, c: 7.85 µM, a: 3.03 µM, b: 0.832 µM)
